experiment-description: in vitro
run-parameters: human, MRC5 SV2 cells
Description: Cytotoxicity against human MRC5 SV2 cells assessed as reduction in cell viability incubated for 3 days by fluorimetry
quantity-kind: IC90 at 72 h (µM)

1. COc1cc(C(=O)N2CCCC(c3cc4ncccc4[nH]3)C2)on1 (stereo unspecified)
64
2. CC(C)c1cc(C(=O)N2CCC(O)(c3cc4ncccc4[nH]3)CC2)on1
64
3. O=C(NCCc1nc2ccccc2[nH]1)c1ccccc1
64
4. O=C(c1ccccc1)N1CCCC(c2cn3ncccc3n2)C1 (stereo unspecified)
64
5. OC1(c2cc3ncccc3[nH]2)CCN(Cc2ccccc2)CC1
64
6. O=C(Nc1cccc(-c2cc3ncccc3[nH]2)c1)c1ccccc1
64

###

experiment-description: in vitro
run-parameters: dog, MDCK
quantity-kind: Papp A→B

1) CC(C)c1cc(C(=O)N2CC=C(c3cc4ncccc4[nH]3)CC2)on1
14.6 ×10⁻⁶ cm/s
2) CC(C)c1cc(C(=O)N2CCCC(c3cc4ncccc4[nH]3)C2)on1 (configuration not stated)
29.4 ×10⁻⁶ cm/s

Data origin: ChEMBL document CHEMBL4342426
